Species: Rattus norvegicus
protocol description: Extent of hydrolysis of C3 acetyl group of 0.4 mM of compound 5 min after exposure by rat liver homogenate
Format: functional
// returns 0.0 unless Hydrolysis is strictly below 3%, in which case 1.0

Asked: Criterion: Hydrolysis strictly below 3%. Is it met by `COc1ccc([C@@H]2Sc3ccccc3N(C[C@@H]3CCCN3)C(=O)[C@@H]2OC(C)=O)cc1` ?
Given back: 0.0

Asked: Criterion: Hydrolysis strictly below 3%. Is it met by `COc1ccc([C@@H]2Sc3ccccc3N(CCN(C)C)C(=O)[C@@H]2OC(C)=O)cc1` ?
Given back: 0.0

Asked: Criterion: Hydrolysis strictly below 3%. Is it met by `COc1ccc([C@@H]2Cc3c(Cl)cccc3N(C[C@@H]3CCCN3)C(=O)[C@@H]2OC(C)=O)cc1` ?
Given back: 0.0

Asked: Criterion: Hydrolysis strictly below 3%. Is it met by `COc1ccc([C@@H]2Cc3c(cccc3C(F)(F)F)N(CCN(C)C)C(=O)[C@@H]2OC(C)=O)cc1` ?
Given back: 1.0

Asked: Criterion: Hydrolysis strictly below 3%. Is it met by `COc1ccc([C@@H]2Cc3ccccc3N(CCN(C)C)C(=O)[C@@H]2OC(C)=O)cc1` ?
Given back: 0.0

Asked: Criterion: Hydrolysis strictly below 3%. Is it met by `COc1ccc([C@@H]2Cc3c(cccc3C(F)(F)F)N(C[C@@H]3CCCN3)C(=O)[C@@H]2OC(C)=O)cc1` ?
Given back: 1.0

Origin of the recorded values: ChEMBL document CHEMBL1126271
